Source: patent US9096591B2

# target_or_test_system: human recombinant histamine H2 receptor (Homo sapiens, UniProt P25021)
# Construct: expressed in transfected cells; host or cells: CHO-K1 cells
# Sequence (P25021 whole entry): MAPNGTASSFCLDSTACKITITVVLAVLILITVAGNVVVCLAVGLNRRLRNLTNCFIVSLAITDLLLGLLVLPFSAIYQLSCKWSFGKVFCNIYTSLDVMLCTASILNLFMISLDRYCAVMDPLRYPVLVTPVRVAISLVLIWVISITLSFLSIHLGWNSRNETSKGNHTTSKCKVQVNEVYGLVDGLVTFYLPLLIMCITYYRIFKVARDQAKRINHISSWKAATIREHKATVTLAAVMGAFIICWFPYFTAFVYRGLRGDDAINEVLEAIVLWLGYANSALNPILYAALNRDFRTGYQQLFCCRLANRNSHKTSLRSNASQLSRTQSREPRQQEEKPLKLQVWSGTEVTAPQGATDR
# experiment: Histamine H2 radioligand binding ([125I]Aminopotentidine)
# experimental_setup: percent inhibition of specific binding; screened at 1 μM; read-out: Inhibition of ligand binding, Hist. H2
quantity_measured: inhibition at 1 µM
Could you give the number and then its unit, please?

CCc1ccc2c(c1)c1c(n2CCc2cnc(C)nc2)CCN(C)C1 [Compound 362] | 19%
CC(C)N1CCN(C(=O)Cn2c3c(c4cc(Cl)ccc42)CN(C)CC3)CC1 [Compound 248] | 7%
Cc1ncc(CCn2c3c(c4cc(C(C)C)ccc42)CN(C)CC3)cn1 [Compound 370] | 18%
Cc1cccc2c3c(n(CCc4ccc(C(F)(F)F)nc4)c12)CCN(C)C3 [Compound 380] | 69%
Cc1ccc2c(c1)c1c(n2CCc2ccccc2F)CCN(C)C1 [Compound 34] | 89%

Look up and state reported inhibition at 1 µM for Cc1ccc2c(c1)c1c(n2CCc2cncc(Cl)c2)CCN(C)C1 [Compound 443]
94%

Query inhibition at 1 µM for CN1CCc2c(c3cc(F)ccc3n2CCc2ccc(F)cc2)C1 [Compound 253]
73%

Please report inhibition at 1 µM for the following compound: Cc1ccc2c(c1)c1c(n2CCc2ccc(C(F)(F)F)nc2)CCN(C)C1 [Compound 68]
49%

====

# target_or_test_system: human recombinant dopamine D2L receptor (Homo sapiens)
# Construct: expressed in transfected cells; host or cells: CHO cells
# Sequence (P14416 whole entry): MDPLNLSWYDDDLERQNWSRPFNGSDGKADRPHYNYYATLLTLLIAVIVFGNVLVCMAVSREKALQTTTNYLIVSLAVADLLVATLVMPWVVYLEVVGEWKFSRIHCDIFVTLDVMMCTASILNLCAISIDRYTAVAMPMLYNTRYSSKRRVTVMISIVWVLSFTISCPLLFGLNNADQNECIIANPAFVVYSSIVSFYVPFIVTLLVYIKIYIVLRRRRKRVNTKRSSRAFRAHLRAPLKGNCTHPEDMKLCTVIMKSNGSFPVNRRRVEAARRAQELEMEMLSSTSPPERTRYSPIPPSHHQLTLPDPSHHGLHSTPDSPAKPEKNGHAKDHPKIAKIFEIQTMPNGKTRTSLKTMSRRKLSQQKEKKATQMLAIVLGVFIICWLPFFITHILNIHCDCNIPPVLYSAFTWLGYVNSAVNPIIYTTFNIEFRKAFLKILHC
# experiment: Dopamine D2L radioligand binding ([3H]Spiperone)
# experimental_setup: percent inhibition of specific binding
Is Inhibition of ligand binding, Dop. D2L at least 30%? Then 1. If not, 0.

Worked cases, answers included:
Cc1ncc(CCn2c3c(c4cc(C(C)C)ccc42)CN(C)CC3)cn1 | 0
CN1CCc2c(c3cc(Cl)ccc3n2CCCc2ccc(C(F)(F)F)nc2)C1 | 0
CN1CCc2c(c3cc(Cl)ccc3n2CC(=O)N2CCNC(=O)C2)C1 | 0
CCOC(=O)N1CCc2c(c3cc(C)ccc3n2CCc2ccccc2)C1 | 0
CCc1ccc2c(c1)c1c(n2CCc2cnc(C)nc2)CCN(C)C1 | 0

# bool: Inhibition of ligand binding, Dop. D2L of `CN1CCc2c(c3cc(Cl)ccc3n2CCc2ccccc2)C1` >= 30%
1

State whether the measured Inhibition of ligand binding, Dop. D2L reaches 30%, counting equality as reaching it, for `Cc1ccc(CCn2c3c(c4cc(C(C)C)ccc42)CN(C)CC3)cn1`
0

Evaluate `Cc1ccc2c(c1)c1c(n2CCc2cnc(C)cn2)CCN(C)C1` : Inhibition of ligand binding, Dop. D2L at minimum 30%?
0

====

# target_or_test_system: human recombinant serotonin (5-Hydroxytryptamine) 5-HT2C receptor (Homo sapiens)
# Construct: expressed in transfected cells; host or cells: CHO-K1 cells
# Sequence (P28335 33-458): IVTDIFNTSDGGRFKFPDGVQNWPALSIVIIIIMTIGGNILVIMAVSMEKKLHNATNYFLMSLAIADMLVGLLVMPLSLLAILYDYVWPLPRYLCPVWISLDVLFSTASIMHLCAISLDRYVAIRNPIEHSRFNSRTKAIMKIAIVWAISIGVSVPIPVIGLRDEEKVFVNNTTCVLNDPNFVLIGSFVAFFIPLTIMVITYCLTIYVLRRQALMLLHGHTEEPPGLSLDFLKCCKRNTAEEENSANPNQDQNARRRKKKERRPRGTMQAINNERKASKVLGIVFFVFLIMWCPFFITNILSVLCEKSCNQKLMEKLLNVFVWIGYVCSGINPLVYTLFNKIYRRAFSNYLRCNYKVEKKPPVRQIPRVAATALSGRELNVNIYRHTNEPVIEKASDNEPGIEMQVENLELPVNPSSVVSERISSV
# experiment: Serotonin 5-HT2C radioligand binding ([3H]Mesulergine)
# experimental_setup: compounds screened at 1 μM; read-out: Inhibition of ligand binding, Ser. 5-HT2C (percent inhibition of specific binding)
quantity_measured: inhibition at 1 µM (%)
Provide the reading as a plain figure in %.

# annotated cases, reported inhibition at 1 µM shown
Cc1ccc2c(c1)c1c(n2CCc2nc(-c3ccccc3)cs2)CCN(C)C1 [Compound C1-5] | 93
CN1CCc2c(c3cc(Cl)ccc3n2CCc2noc(-c3ccccc3)n2)C1 [Compound C4-6] | 94

Assign inhibition at 1 µM to the following record: Cc1ccc2c(c1)c1c(n2CCc2noc(-c3ccccc3)n2)CCN(C)C1 [Compound C4-4]
98
